# Tested System: UniProt P30530
# Sequence (P30530 26-894): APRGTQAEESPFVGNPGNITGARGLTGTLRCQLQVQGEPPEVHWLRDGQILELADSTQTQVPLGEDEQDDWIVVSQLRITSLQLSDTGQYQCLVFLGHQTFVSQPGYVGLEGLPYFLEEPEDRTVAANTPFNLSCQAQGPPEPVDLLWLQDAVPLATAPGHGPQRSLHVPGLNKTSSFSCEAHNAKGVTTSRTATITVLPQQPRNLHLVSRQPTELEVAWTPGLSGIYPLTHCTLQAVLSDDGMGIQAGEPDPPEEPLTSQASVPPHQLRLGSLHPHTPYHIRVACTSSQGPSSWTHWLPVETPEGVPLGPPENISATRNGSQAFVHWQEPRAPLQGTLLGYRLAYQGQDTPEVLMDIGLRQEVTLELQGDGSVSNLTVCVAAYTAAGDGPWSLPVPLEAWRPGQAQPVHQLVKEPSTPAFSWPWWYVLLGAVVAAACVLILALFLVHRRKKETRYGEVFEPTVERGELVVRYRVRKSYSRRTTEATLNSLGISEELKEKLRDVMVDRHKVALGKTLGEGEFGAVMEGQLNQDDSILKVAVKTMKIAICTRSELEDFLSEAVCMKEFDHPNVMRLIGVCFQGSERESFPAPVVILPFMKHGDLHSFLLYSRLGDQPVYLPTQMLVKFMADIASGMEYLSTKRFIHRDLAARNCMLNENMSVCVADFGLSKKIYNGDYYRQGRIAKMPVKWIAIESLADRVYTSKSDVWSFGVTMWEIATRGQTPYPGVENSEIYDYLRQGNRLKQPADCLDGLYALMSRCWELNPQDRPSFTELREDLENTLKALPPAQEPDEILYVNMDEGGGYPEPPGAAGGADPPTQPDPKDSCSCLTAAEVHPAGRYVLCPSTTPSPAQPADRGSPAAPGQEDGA
Can you tell me IC50 for the items I'm about to list?

// query Consider the molecule C[C@@H](CC(F)(F)F)Nc1ncc2c(O[C@H]3C[C@H](N4CCOCC4)C3)ncc([C@H]3CC[C@H](O)CC3)c2n1 [Compound 422] . State its measured IC50.
// result ≤ 100 nM

// query Give the value of IC50 reported for the following: COC[C@H](C)Nc1ncc2c(O[C@@H]3CCN(C)C3)ncc([C@H]3CC[C@H](O)CC3)c2n1 [Compound 366]
// result 1000 to 10000 nM

// query Give IC50 for CCN1C(C)(C)CC(Oc2ncc([C@H]3CC[C@H](O)CC3)c3nc(N[C@@H](C)CC(F)(F)F)ncc23)CC1(C)C [Compound 391]
// result ≤ 100 nM

// query Please report IC50 for the following molecule: C[C@@H](CC(F)(F)F)Nc1ncc2c(O[C@@H]3C[C@H]4CC[C@@H](C3)N4C3COC3)ncc([C@H]3CC[C@H](O)CC3)c2n1 [Compound 437]
// result ≤ 100 nM

// query For the molecule O[C@H]1CC[C@H](c2cnc(OC3CCNCC3)c3cnc(NCCC(F)(F)F)nc32)CC1 [Compound 224] , give its measured IC50 value.
// result ≤ 100 nM

// query Query IC50 for CCCC(C)Nc1ncc2c(OC3CCS(=O)(=O)CC3)ncc([C@H]3CC[C@H](O)CC3)c2n1 (some centres unmarked) [Compound 141]
// result 100 to 1000 nM

// query Kindly indicate its recorded IC50. Item: CN1C[C@H](Nc2ncc3c(OC4CCOCC4)ncc([C@H]4CC[C@H](O)CC4)c3n2)CC1=O [Compound 323]
// result 1000 to 10000 nM

// query Consider the molecule COC[C@H](C)Nc1ncc2c(OC3CCOCC3)ncc(C3CCC(F)(F)CC3)c2n1 [Compound 358] . State its measured IC50.
// result 1000 to 10000 nM

// query Return IC50 for the following molecule: CC(C)CC(C)Nc1ncc2c(=O)n(C3CCNCC3)cc([C@H]3CC[C@H](O)CC3)c2n1 (some centres unmarked) [Compound 119]
// result 100 to 1000 nM

// query Provide IC50 value for the following molecule: C[C@@H](CC(F)(F)F)Nc1ncc2c(O[C@@H]3C[C@H]4CC[C@@H](C3)N4C[C@@H]3CCCO3)ncc([C@H]3CC[C@H](O)CC3)c2n1 [Compound 421]
// result ≤ 100 nM

// query Note down IC50 recorded for COC[C@H](C)Nc1ncc2c(Nc3cccnc3)ncc([C@H]3CC[C@H](O)CC3)c2n1 [Compound 363]
// result 1000 to 10000 nM

// query Tell us which IC50 value is on record for COC[C@H](C)Nc1ncc2c(O[C@@H]3CCN(C)C(C)(C)C3)ncc([C@H]3CC[C@H](O)CC3)c2n1 [Compound 385]
// result 100 to 1000 nM

// query Given the molecule CCCCNc1ncc2c(=O)n(-c3ccc(CN4CCOCC4)cc3)cc([C@H]3CC[C@H](O)CC3)c2n1 [Compound 101] , write its reported IC50.
// result 100 to 1000 nM

// query Look up and report measured IC50 for this entry: CC(C)Nc1ncc2c(OC3CCOCC3)ncc(-c3cccc(S(=O)(=O)N(C)C)c3)c2n1 [Compound 288]
// result 100 to 1000 nM

// data source = patent US20200291018A1
